Assay: qHTS assay for small molecule antagonists of retinoid X receptor alpha signaling (AID 588546);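 note: cells stimulated with 9-cis-retinoic acid as agonist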
Conditions: HEK293T RXRa-UAS-bla, beta-lactamase ratio, antagonist mode; measured here: W530 green channel, cytotoxicity proxy
Inconclusive results are not listed.
Give Condition met when the value for max response is at least -20%. Give Condition not met when it is less.

Example entries begin here.
>>> label("CN(C)c1ccc2nc3ccc(=[N+](C)C)cc-3sc2c1")
"Condition not met"
>>> label("Nc1ccc(S(N)(=O)=O)cc1")
"Condition met"
>>> label("CCCCC(CC)COC(=O)C(C#N)=C(c1ccccc1)c1ccccc1 (stereo unspecified)")
"Condition met"
>>> label("COc1cc(OC)c(C(=O)CCCN2CCCC2)c(OC)c1")
"Condition met"
>>> label("Cc1cc(O)c2c(c1)C(=O)c1cc(O)cc(O)c1C2=O")
"Condition met"

Could you now consider this next compound?
Please indicate if the recorded max response for "CCc1nc(N)nc(N)c1-c1ccc(Cl)cc1" meets or exceeds -20%.
Condition met

###

Test: qHTS of pediatric cancer cell lines to identify multiple opportunities for drug repurposing: Primary screen for BT-37 cells (AID 1347094)
Settings: BT-37 viability, CellTiter-Glo luminescence, 48 h; series mostly up to 57.3 µM
Results filed as inconclusive are left out. Active and inactive are the calls of the source. Calls come from the whole dose curve; as a rule, active = well fitted cell-killing curve with a large enough effect; inconclusive = small, poorly fitted or top-dose-only effect; inactive = flat fitted curve, though single readings scatter.
Allowed answers: active, inactive

>>> label("COc1c2occc2cc2ccc(=O)oc12")
"inactive"
>>> label("CC(C)[C@H](N)C(=O)OCCOCn1cnc2c(=O)[nH]c(N)nc21")
"inactive"
>>> label("C[C@@H](N)C1CCC(C(=O)Nc2ccncc2)CC1 (stereo partly specified)")
"inactive"
>>> label("Nc1cc(C(Cl)=C(Cl)Cl)c(S(N)(=O)=O)cc1S(N)(=O)=O")
"inactive"
>>> label("O=C(O)c1cccnc1Nc1cccc(C(F)(F)F)c1")
"inactive"
>>> label("CC1Cc2ccccc2N1NC(=O)c1ccc(Cl)c(S(N)(=O)=O)c1 (stereo unspecified)")
"inactive"
>>> label("O=C(CS(=O)Cc1ccco1)NCC=CCOc1cc(CN2CCCCC2)ccn1 (stereo unspecified)")
"inactive"
>>> label("Cc1ccc(S(=O)(=O)NC(=O)NN2CC3CCCC3C2)cc1 (stereo unspecified)")
"inactive"
>>> label("Cc1nc2n(c(=O)c1CCN1CCC(c3noc4cc(F)ccc34)CC1)CCCC2")
"inactive"
>>> label("CC(C)[N+]1(C)[C@@H]2CC[C@H]1CC(OC(=O)C(CO)c1ccccc1)C2 (stereo partly specified)")
"inactive"

Record lookup: outcome of this test for "CCOC(=O)C1=C[C@@H](OC(CC)CC)[C@H](NC(C)=O)[C@@H](N)C1" ?
inactive

Just curious, what result did COC(=O)C1=C(C)NC(C)=C(C(=O)OC(C)C)C1c1cccc2nonc12 (stereo unspecified) get here?
inactive

Given "COc1c(O)cc2c(c1O)[C@@H]1O[C@H](CO)[C@@H](O)[C@H](O)[C@H]1OC2=O" , state the outcome it received in this test.
inactive

Recorded test call requested for COc1ccc(C2(C#N)CCC(C(=O)O)CC2)cc1OC1CCCC1 (stereo unspecified)
inactive

Answer briefly: the call reported for O=C(c1ccccc1)c1ccc2n1CCC2C(=O)O (stereo unspecified) in this assay.
inactive

I'd appreciate the recorded outcome for COc1cc2c(cc1OC)C1CC(=O)C(CC(C)C)CN1CC2 (stereo unspecified) from this test.
inactive

Give the logged outcome of this assay for the following compound: "CC(=O)NC[C@H]1CN(c2ccc(N3CCOCC3)c(F)c2)C(=O)O1"
inactive

Tell me the recorded outcome of this test for "CN(c1nccc(=O)[nH]1)C1CCN(c2nc3ccccc3n2Cc2ccc(F)cc2)CC1" .
inactive

Tell me the assay call for "Nc1nc(Cl)nc2c1ncn2[C@H]1C[C@H](O)[C@@H](CO)O1" please.
active

# lookup: test call for COCCCOc1ccnc(CS(=O)c2nc3ccccc3[nH]2)c1C (stereo unspecified)
inactive

What did the test return for CCC(C)(Oc1ccc(C2(c3ccc(OC(C)(CC)C(=O)O)cc3)CCCCC2)cc1)C(=O)O (stereo unspecified) ?
inactive
